Origin of values: paper PMC5540273

Test system: FER
Conditions: concentration: 1 μM, replicates: in singlicate; n = 1;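 further: KINOMEscan kinase panel screen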
Listing of recorded %Inh by entry.
Please respond with the number in % and leave the unit unwritten.

# example entries with known answers
- C[C@@H]1CC[C@H](C(=O)NC2CCCCC2)CN1c1cc(-c2ccc3c(N)n[nH]c3c2)nc(N)n1 [GSK2291363]: 41
- Cc1cccc(-c2nc(Nc3ccc4c(cnn4C)c3)c3ccccc3n2)n1 [GW876731]: 9
- COc1ccc(-c2cc3c(C)nc(N)nc3n([C@H]3CC[C@H](O)CC3)c2=O)cn1: 0
- Cc1ccccc1COc1cc(-n2cnc3cc(Cl)ccc32)sc1C(N)=O [GW813349]: 0
- CCn1c(-c2nonc2N)nc2ccccc21 [SB-693162/GW549034]: 0
- CN1C(=O)C(Nc2ccccc2)=C(c2ccccc2)C1=O [SB-300079]: 0
- COc1cccc(C2=C(N(C)c3ccccc3)C(=O)NC2=O)c1 [SB-334865]: 0
- Cc1cccc(-c2cc(-c3c[nH]nc3-c3ccccn3)ccn2)c1 [GW679395]: 4

According to the records, this molecule Cc1ccc(-c2ccc3c(ccc4sc5c(c43)NC[C@@H](C)N=C5N(C)C)n2)cn1 displays %Inh of 1

According to the records, this molecule COc1ccc(CNC(=O)NC2CCN(c3ccnc(Nc4ccc(F)cc4)n3)C2)cc1 (stereo not shown) [GSK1379706] displays %Inh of 25

According to the records, this molecule Cc1cc(Nc2nc(-c3cccc(C)n3)nc3ccccc23)ccn1 [GW872411] displays %Inh of 0

According to the records, this molecule O=C(Nc1ccc2c(c1)OCO2)NC1CCN(c2ccnc(NCc3ccc(F)cc3)n2)CC1 [GSK1379859] displays %Inh of 8

According to the records, this molecule Cl.c1ccc(Cn2cnc3cc(Nc4ncnc5ccccc45)ccc32)cc1 [GW272142] displays %Inh of 21

According to the records, this molecule O=C(Nc1n[nH]c2nc(-c3ccccc3)c(Cl)cc12)C1CC1 [SB-734909] displays %Inh of 0

According to the records, this molecule COc1cc(Nc2ccnc3ccc(C(F)(F)F)cc23)cc(OC)c1OC [GW577382] displays %Inh of 21

According to the records, this molecule Nc1ncnc2c1ncn2-c1cccc2ccccc12 [SKF-97184] displays %Inh of 0

According to the records, this molecule CCC(=O)c1c(-c2ccccc2)c2cc(Cl)ccc2c(=O)n1Cc1cc(S(C)(=O)=O)n(CC(F)F)n1 displays %Inh of 0

According to the records, this molecule Cl.NS(=O)(=O)c1cccc(Nc2cc(-c3ccc(F)cc3)n[nH]2)c1 [GW824645] displays %Inh of 41

According to the records, this molecule Cc1nnc(-c2ccc3ncn(-c4ccc(S(C)=O)cc4)c3c2)o1 (stereo not shown) displays %Inh of 5

---

Listing of recorded %Inh by entry.
Tested on: MAP4K3
Settings: concentration: 1 μM, replicates: in singlicate; n = 1
Please respond with the number in % and leave the unit unwritten.

- CCCC(=O)Nc1n[nH]c2ncc(-c3cccc4ccccc34)cc12 [SB-642057]: 12
- Cc1ccc(Oc2ccc(Nc3ncnc4cc[nH]c34)cc2C)cn1: 0
- FC(F)(F)c1ccc(-c2ncn(CCCN3CCOCC3)c2-c2ccncc2)cc1 [SB-217780]: 0
- COc1cccc(-n2cnc3c(N)ncnc32)c1 [SKF-97416]: 0
- Cc1nnc(-c2ccc(C)c(-c3ccc(C(=O)O)cc3)c2)o1 [GW608005]: 0
- CCc1ccc(-c2ccc3c(c2)-c2nn(C)cc2S(=O)(=O)N3C)cc1: 0
- COc1ccc(CNC(=O)NC2CCN(c3ccnc(Nc4ccc(F)cc4)n3)C2)cc1 (stereo not drawn) [GSK1379706]: 0
- Nc1nc(-c2ccccc2F)c(-c2ccnc3ccccc23)s1 [GW560459]: 0
- O=c1cc(N2CCOCC2)nc2n(Cc3ccc(F)c(Cl)c3)ccn12 [GSK2297099]: 0
- Cc1cccc(-c2nc(Nc3ccc4c(cnn4C)c3)c3ccccc3n2)n1 [GW876731]: 0

According to the records, this compound CCn1c(-c2ccoc2)nc2cnccc21 [SB-733887] displays %Inh of 0

According to the records, this compound Nc1n[nH]c2nnc(-c3ccccc3)c(-c3ccccc3)c12 [GW554060] displays %Inh of 0

According to the records, this compound O=C1NC(=O)C(c2ccccc2)=C1Nc1cccc(O)c1 [SB-390534] displays %Inh of 0

According to the records, this compound Cc1ccc(-c2ccc3c(ccc4sc5c(c43)NC[C@@H](C)N=C5N(C)C)n2)cn1 displays %Inh of 0

According to the records, this compound O=C(Nc1ccc2c(c1)OCO2)NC1CCN(c2ccnc(NCc3ccc(F)cc3)n2)CC1 [GSK1379859] displays %Inh of 0

---

Test system: BUB1
Conditions: concentration: 1 μM, replicates: in singlicate; n = 1
Listing of recorded %Inh by entry.
Please respond with the number in % and leave the unit unwritten.

• CCC(=O)c1c(-c2ccccc2)c2cc(Cl)ccc2c(=O)n1Cc1ccc(C(=O)O)cc1 = 0

BUB1 %Inh of O=C(NCc1cccs1)c1cc(C(=O)c2c(Cl)cccc2Cl)c[nH]1 is 0

BUB1 %Inh of COc1cc(Nc2nccc(N3CCC(NC(=O)C4COc5ccccc5O4)C3)n2)cc(OC)c1OC (stereo not drawn) is 53

BUB1 %Inh of COc1ccc(-c2cc3c(C)nc(N)nc3n([C@H]3CC[C@H](OCCO)CC3)c2=O)cn1 is 0

---

System: PIP5K2B
Settings: concentration: 1 μM, replicates: in singlicate; n = 1
Listing of recorded %Inh by entry.
Please respond with the number in % and leave the unit unwritten.

According to the records, this compound COc1cc(Nc2nccc(N3CCC(NC(=O)C(C)c4ccc(Cl)cc4)C3)n2)cc(OC)c1OC (stereo not drawn) displays %Inh of 3

According to the records, this compound CCS(=O)(=O)c1ccc(OC)c(Nc2ncc(-c3ccc(F)cc3)o2)c1.Cl displays %Inh of 3

According to the records, this compound CCn1c(-c2ccoc2)nc2cnccc21 displays %Inh of 0

According to the records, this compound O=C(Nc1ccc2c(c1)OCO2)NC1CCN(c2ccnc(NCc3ccc(F)cc3)n2)CC1 displays %Inh of 2

According to the records, this compound Cl.c1ccc(Cn2cnc3cc(Nc4ncnc5ccccc45)ccc32)cc1 displays %Inh of 0

---

Test system: ASK2
Construct: gene MAP3K6
Details: concentration: 1 μM, replicates: in singlicate; n = 1
Property Label: %Inh (%)
Please respond with the number in % and leave the unit unwritten.

# example entries with known answers
* COc1cc(OC)cc(-c2cc3cnc(N)nc3nc2NC(=O)NC(C)(C)C)c1 | 0
* O=C(Nc1n[nH]c2nc(-c3ccccc3)c(Cl)cc12)C1CC1 [SB-734909] | 21
* COc1cccc(C2=C(N(C)c3ccccc3)C(=O)NC2=O)c1 [SB-334865] | 0
* FC(F)(F)c1ccc(-c2ncn(CCCN3CCOCC3)c2-c2ccncc2)cc1 [SB-217780] | 0
* CCC(=O)c1c(-c2ccccc2)c2cc(Cl)ccc2c(=O)n1Cc1ccc(C(=O)O)cc1 | 0

According to the records, this compound Cc1nnc(-c2ccc(C)c(-c3ccc(C(=O)O)cc3)c2)o1 [GW608005] displays %Inh of 0

According to the records, this compound Nc1n[nH]c2nnc(-c3ccccc3)c(-c3ccccc3)c12 [GW554060] displays %Inh of 4

According to the records, this compound COC(=O)c1c(-c2ccccc2)c2cc(Br)ccc2c(=O)n1Cc1ccc(S(C)(=O)=O)cc1 displays %Inh of 0

According to the records, this compound CCc1ccc(-c2ccc3c(c2)-c2nn(C)cc2S(=O)(=O)N3C)cc1 displays %Inh of 0

---

Listing of recorded %Inh by entry.
Tested on: MAP4K2
Conditions: concentration: 1 μM, replicates: in singlicate; n = 1
Please respond with the number in % and leave the unit unwritten.

# example entries with known answers
* CCn1c(-c2ccoc2)nc2cnccc21 | 0
* CN1C(=O)C(Nc2ccccc2)=C(c2ccccc2)C1=O | 0
* COc1cccc(C2=C(N(C)c3ccccc3)C(=O)NC2=O)c1 | 0

According to the records, this compound O=C(NCCNc1ccnc(Nc2ccc(F)cc2)n1)Nc1ccc2c(c1)OCO2 displays %Inh of 0

According to the records, this compound Nc1ncnc2c1ncn2-c1cccc(F)c1 displays %Inh of 38

According to the records, this compound Nc1ncnc2c1ncn2-c1ccc(Cl)cc1 displays %Inh of 0

---

Tested on: WEE1
Details: concentration: 1 μM, replicates: in singlicate; n = 1
Listing of recorded %Inh by entry.
Please respond with the number in % and leave the unit unwritten.

According to the records, this compound CCC(=O)c1c(-c2ccccc2)c2cc(Cl)ccc2c(=O)n1Cc1cc(S(C)(=O)=O)n(CC(F)F)n1 displays %Inh of 0

According to the records, this compound COc1ccc(CNC(=O)NC2CCN(c3ccnc(Nc4ccc(F)cc4)n3)C2)cc1 (centres unmarked) displays %Inh of 10

According to the records, this compound Fc1cccc(CSc2nnc(-c3ccc4c(c3)CCO4)o2)c1 displays %Inh of 0

According to the records, this compound Cl.c1ccc(Cn2cnc3cc(Nc4ncnc5ccccc45)ccc32)cc1 displays %Inh of 4
